# Experimental Protocol: differential killing of epithelial or mesenchymal cells, primary screen, imaging, PC-3E GFP, TEM4-18 mCherry, co-culture (AID 1345086);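 further: normalised mesenchymal count divided by normalised epithelial count so high means epithelial killing; cells exposed to compound for 72 h before imaging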
# Particulars: imaging cell counts, at 1 µM, actives lie on both sides, counts scaled to control wells, 1 = unselective
Residues, ends and D or L forms follow the SMILES beside them.
Tag: t if measured red/green cell ratio (normalised) is not below 1, f if it is.

- Compound: "CN1C2CCC1CC(OC(=O)c1c[nH]c3ccccc13)C2 (stereo not given)"
  Group: "t"
- Compound: "COc1cc(CC(=O)O)c(C(C)=O)c(O)c1OC"
  Group: "f"
- Compound: "CC(C)[C@H](NC(=O)[C@H](CC(=O)O)NC(=O)[C@H](CCCCN)NC(=O)[C@@H](N)CCCN=C(N)N)C(=O)N[C@@H](Cc1ccc(O)cc1)C(=O)O (H-RKDVY-OH)"
  Group: "f"
- Compound: "O=C(O)CCc1ccccc1O"
  Group: "f"
- Compound: "CCC1=CC2CN(C1)Cc1c([nH]c3ccccc13)[C@@](C(=O)OC)(c1cc3c(cc1OC)N(C)[C@H]1[C@@](O)(C(=O)OC)[C@H](OC(C)=O)[C@]4(CC)C=CCN5CC[C@]31[C@@H]54)C2 (stereo not given in full)"
  Group: "t"
- Compound: "CO/N=C(/C(=O)N[C@@H]1C(=O)N2C(C(=O)O)=C(CSc3nc(=O)c(O)nn3C)CS[C@H]12)c1csc(N)n1"
  Group: "t"

Is it the case that CC(C)[C@@H]1CC[C@@H](C)C[C@H]1O has red/green cell ratio (normalised) reaching or exceeding 1?
f

Thanks! And CN[C@H]1[C@@H](O[C@@H]2[C@@H](O[C@@H]3[C@@H](O)[C@H](O)[C@@H](N=C(N)N)[C@H](O)[C@H]3N=C(N)N)O[C@H](C)[C@@]2(O)CO)O[C@H](CO)[C@@H](O)[C@@H]1O ?
f

Thanks! And CC(=O)c1ccc(S(=O)(=O)NC(=O)NC2CCCCC2)cc1 ?
f

Thanks! And COc1ccc2oc3ccccc3c(=O)c2c1 ?
f

Thanks! And CC(=O)NCCc1ccc(O)c(-c2c(O)c(O)c3c(c2O)C(=O)c2c(cc(O)c(C(=O)O)c2C(=O)O)C3=O)c1 ?
t

Thanks! And COC1=CC(=O)OC1(O)C(C)C (stereo not given) ?
t
